Target: human recombinant HDAC6 (Homo sapiens, UniProt Q9UBN7)
Construct: purchased BPS Bioscience Inc. 50006
Sequence (Q9UBN7 1-1215): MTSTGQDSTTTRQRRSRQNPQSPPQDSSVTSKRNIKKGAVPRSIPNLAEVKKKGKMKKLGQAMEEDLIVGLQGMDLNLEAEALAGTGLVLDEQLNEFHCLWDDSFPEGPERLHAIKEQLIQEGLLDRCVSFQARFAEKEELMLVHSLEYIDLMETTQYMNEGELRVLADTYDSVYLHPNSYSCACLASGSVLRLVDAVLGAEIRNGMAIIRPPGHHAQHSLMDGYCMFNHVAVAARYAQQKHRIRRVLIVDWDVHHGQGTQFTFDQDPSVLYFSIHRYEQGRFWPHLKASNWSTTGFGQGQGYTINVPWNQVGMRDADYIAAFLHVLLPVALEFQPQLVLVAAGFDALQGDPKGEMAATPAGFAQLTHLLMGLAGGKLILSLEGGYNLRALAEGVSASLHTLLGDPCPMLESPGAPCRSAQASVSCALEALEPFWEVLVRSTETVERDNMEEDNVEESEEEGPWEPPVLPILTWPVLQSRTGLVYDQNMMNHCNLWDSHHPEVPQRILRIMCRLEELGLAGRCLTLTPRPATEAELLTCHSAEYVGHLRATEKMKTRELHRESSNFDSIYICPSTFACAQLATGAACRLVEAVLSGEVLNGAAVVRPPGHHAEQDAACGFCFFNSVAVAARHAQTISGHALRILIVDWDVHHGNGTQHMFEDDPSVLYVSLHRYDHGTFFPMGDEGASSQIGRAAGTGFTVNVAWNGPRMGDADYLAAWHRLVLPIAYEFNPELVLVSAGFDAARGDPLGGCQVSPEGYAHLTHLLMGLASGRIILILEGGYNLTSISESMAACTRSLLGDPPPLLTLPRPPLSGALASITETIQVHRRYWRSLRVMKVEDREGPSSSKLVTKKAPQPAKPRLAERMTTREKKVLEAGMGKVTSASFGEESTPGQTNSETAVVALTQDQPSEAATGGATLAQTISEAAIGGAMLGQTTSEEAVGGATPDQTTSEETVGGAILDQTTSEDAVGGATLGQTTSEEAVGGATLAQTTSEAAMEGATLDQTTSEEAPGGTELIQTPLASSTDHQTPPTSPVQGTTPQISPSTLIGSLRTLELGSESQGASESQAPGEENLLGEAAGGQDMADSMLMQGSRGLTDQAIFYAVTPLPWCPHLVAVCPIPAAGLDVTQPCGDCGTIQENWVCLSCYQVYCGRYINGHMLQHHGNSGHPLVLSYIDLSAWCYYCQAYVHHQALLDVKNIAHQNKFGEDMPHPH
Test: Fluorogenic HDAC enzyme inhibition assay (ZMAL substrate), HDAC6
Assay type: biochemical
Details: without UV irradiation
pIC50: −log10 of the molar value.

{"columns": ["Compound", "pIC50"],
 "data": [
  ["CN(C)c1ccc(C(=O)N(CC(=O)NCc2ccccc2)Cc2ccc(C(=O)NO)cc2)cc1 [I]", 7.88],
  ["COc1cc(CONC(=O)c2ccc(CN(CC(=O)NCc3ccccc3)C(=O)c3ccc(N(C)C)cc3)cc2)c([N+](=O)[O-])cc1OC [pc-I]", 6.10]
]}

---

system: A2780 cell line; assay: MTT cell viability assay, A2780; format: cell-based, human; settings: Homo sapiens, A2780, light or radiation study; MTT, 72 h, without UV irradiation
Readout name: IC50 (nM)

{"columns": ["Query smiles", "Readout name", "Display unit", "Measured"],
 "data": [
  ["CN(C)c1ccc(C(=O)N(CC(=O)NCc2ccccc2)Cc2ccc(C(=O)NO)cc2)cc1", "IC50", "nM", 249]
]}

---

target: human recombinant HDAC6 (Homo sapiens, UniProt Q9UBN7); construct: purchased BPS Bioscience Inc. 50006; assay: Fluorogenic HDAC enzyme inhibition assay (ZMAL substrate), HDAC6; format: biochemical; settings: after UV irradiation (365 nm, 10 min)

{"columns": ["Query smiles", "Display unit", "IC50"],
 "data": [
  ["COc1cc(CONC(=O)c2ccc(CN(CC(=O)NCc3ccccc3)C(=O)c3ccc(N(C)C)cc3)cc2)c([N+](=O)[O-])cc1OC", "nM", 21.6]
]}

---

test system: cellular HDAC activity in MV-3 cells; assay: HDAC whole-cell assay; type: cell-based; conditions: 18 h, without UV irradiation, read-out: IC50 whole-cell HDAC inhibition
Readout name: IC50

{"columns": ["Molecule", "System tested", "Readout name", "Measured"],
 "data": [
  ["CN(C)c1ccc(C(=O)N(CC(=O)NCc2ccccc2)Cc2ccc(C(=O)NO)cc2)cc1 [I]", "cellular HDAC activity in MV-3 cells", "IC50", "90.6 nM"]
]}

The values you see were collected from paper PMC10056348.
